Each entry below lists one item and its recorded Plant response rating, Ryegrass, Italian value.
# Tested on: Ryegrass, Italian (Italian ryegrass, Lolium multiflorum)
# Run description: Test A preemergence, Ryegrass, Italian
# Type: in vivo
# Condition parameters: Preemergence, 500 g ai/ha; 0 to 100 scale (0 no effect, 100 complete control)

1. CCn1nc(Cl)cc(-c2cc(NS(=O)(=O)C(F)(F)F)c(C)cc2C)c1=O	100
2. Cc1cc(C)c(N(S(=O)(=O)C(F)(F)F)S(=O)(=O)C(F)(F)F)cc1C1=NOC2(CCOCC2)C1	100
3. Cc1cc(C)c(-n2ncccc2=O)cc1NS(=O)(=O)C(F)(F)F	50
4. CCn1cc(-c2cc(N(S(=O)(=O)C(F)(F)F)S(=O)(=O)C(F)(F)F)c(C)cc2C)c(=O)n(CC)c1=O	100

Incoming: Could you tell me which Plant response rating, Ryegrass, Italian is on file for `Cc1cc(C)c(N(S(=O)(=O)C(F)(F)F)S(=O)(=O)C(F)(F)F)cc1-c1cn(C)c(=O)n(C)c1=O` ?
Outgoing: 100

Incoming: What does the record list as Plant response rating, Ryegrass, Italian for `Cc1cc(C)c(C(=O)N2CCC(F)(F)C2)cc1NS(=O)(=O)C(F)(F)F` ?
Outgoing: 70

Incoming: If you can, please state the reported Plant response rating, Ryegrass, Italian value of `Cc1cc(Cl)c(NS(=O)(=O)C(F)(F)F)cc1C(=O)N1CCC(Cl)CC1` .
Outgoing: 100

Incoming: Give its Plant response rating, Ryegrass, Italian value. Item: `C#CCN(C)C(=O)c1cc(NS(=O)(=O)C(F)(F)F)c(C)cc1C`
Outgoing: 100
